// provenance: patent US20240301061A1

Here the recorded FACS-Ec50 ratio to BG87P is given for each entry.
Biological target: T1, human claudin 6 (CLDN6) (human, UniProt P56747 1-220)
T1 construct: also called human CLDN6; hCLDN6
T1 sequence: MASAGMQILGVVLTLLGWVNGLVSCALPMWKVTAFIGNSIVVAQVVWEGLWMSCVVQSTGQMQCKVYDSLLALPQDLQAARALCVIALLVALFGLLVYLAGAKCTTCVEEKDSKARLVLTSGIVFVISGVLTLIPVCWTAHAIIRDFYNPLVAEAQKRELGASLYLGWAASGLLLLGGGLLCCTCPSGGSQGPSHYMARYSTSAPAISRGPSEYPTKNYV
Assay: flow cytometry, HEK293-hCLDN6 cells; ratio to chBG87P
Number, no unit, nothing else.

Binder: BG87P-33 (antibody, V domains shown, Framework-swapped variant; also called BG87-33) VH: EVQLQESGGGLVQPGGSLRLSCAASGYSFTDYHINWVRQAPGKGLEWVSYIYPGSGHTKYNEKFKGRFTISRDTSKNTAYLQMNSLRAEDTAVYYCARSGIYHYVSSYYFDHWGQGTLVTVSS VL: DIQMTQSPSTLSASVGDRVTITCKASQDAGSAVAWYQQKPGKAPKLLIYWASTRHTGVPSRFSGSGSGTEFTLTISSLQPDDFATYYCQQYSSYTFGGGTKVEIK
FACS-Ec50 ratio to BG87P: 2.45

Binder: anti-CLDN6 chimeric BG87P (antibody, V domains shown, expressed in HEK293T; also called chBG87P; ChBG87P) VH: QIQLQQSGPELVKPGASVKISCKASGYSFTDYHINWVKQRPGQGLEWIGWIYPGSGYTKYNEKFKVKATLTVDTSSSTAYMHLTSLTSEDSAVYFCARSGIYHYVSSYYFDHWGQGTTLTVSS VL: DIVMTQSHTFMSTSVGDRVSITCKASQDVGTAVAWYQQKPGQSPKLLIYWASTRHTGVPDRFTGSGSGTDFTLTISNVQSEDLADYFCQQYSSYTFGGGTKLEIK
FACS-Ec50 ratio to BG87P: 1

Query block: Data request, read-out FACS-Ec50 ratio to BG87P, for BG87P-32 (antibody, V domains shown, Solubility engineering variant of BG87P-21) VH: QVQLQQSGAETKKPGASVKVSCKASGYSFTDYHINWVRQASGQRLEWMGYIYPGSGHTKKNEKFKGRVTITRDTSASTAYMELSSLRSEDTAVYYCARSGIYHYVSSYYFDHWGKGTTVTVSS VL: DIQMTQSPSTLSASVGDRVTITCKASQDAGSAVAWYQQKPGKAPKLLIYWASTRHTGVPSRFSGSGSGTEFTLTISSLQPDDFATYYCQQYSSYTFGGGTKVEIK
Result block: 1.31
